Tested on: HS 578T
Assay: NCI 60 growth inhibition
Assay type: cell-based, human
Settings: Homo sapiens, Breast Cancer, Table 2
Assignment: determine reported log10(GI50) for the given compounds.
Short version: log10 scale, GI50, µM.

- C=C1C(=O)O[C@H]2[C@H]1CC/C(Cn1cc(-c3ccc(F)cc3)nn1)=C\CC[C@@]1(C)O[C@@H]21: 0.57
- C=C1C(=O)O[C@H]2[C@H]1CC/C(Cn1cc(CCC)nn1)=C\CC[C@@]1(C)O[C@@H]21: 1.37
- C=C1C(=O)O[C@H]2[C@H]1CC/C(Cn1cc(-c3cc(C(F)(F)F)cc(C(F)(F)F)c3)nn1)=C\CC[C@@]1(C)O[C@@H]21: 0.01

Quick batch: log10(GI50) for everything below.
1. C=C1C(=O)O[C@H]2[C@H]1CC/C(Cn1cc(-c3cccc(Cl)c3)nn1)=C\CC[C@@]1(C)O[C@@H]21
2. C=C1C(=O)O[C@H]2[C@H]1CC/C(Cn1cc(-c3ccc(OC)cc3)nn1)=C\CC[C@@]1(C)O[C@@H]21
3. C=C1C(=O)O[C@H]2[C@H]1CC/C(Cn1cc(-c3ccccc3)nn1)=C\CC[C@@]1(C)O[C@@H]21

A.
0.35
0.87
0.99
